Values were extracted from patent US20090042726A1.

# AGSTE herbicidal action (damage score 0-10) values compiled below
Tested on: Monocotyledonous and dicotyledonous test plants
Experiment: Herbicidal action, application pre-emergence (Example B1)
Assay type: in vivo
Design: key: 10=total damage to plant; 0=no damage to plant
Details: Agrostis-tenius, 1000 g/ha, evaluated after 9 or 13 days
assay_readout: AGSTE herbicidal action (damage score 0-10)

>  <molecule>
Cn1nc(C(F)(F)F)c(C[S+]([O-])C2=NOC(C)(C)C2F)c1OCC(F)(F)F (single isomer, unassigned) [2.09]

>  <measurement_target>
Monocotyledonous and dicotyledonous test plants

>  <value>
10

$$$$
>  <molecule>
Cn1nc(C(F)(F)F)c(C[S+]([O-])C2=NOC(C)(C)C2Br)c1OC(F)F (stereo not drawn)

>  <measurement_target>
Monocotyledonous and dicotyledonous test plants

>  <value>
9

$$$$
>  <molecule>
CC1(C)ON=C([S+]([O-])Cc2nn(C3CCCC3)nc2C(F)(F)F)C1F (mixture of isomers) [7.13]

>  <measurement_target>
Monocotyledonous and dicotyledonous test plants

>  <value>
10

$$$$
>  <molecule>
Cc1nn(C)nc1C[S+]([O-])C1=NOC(C)(C)C1F (single isomer, unassigned) [7.03]

>  <measurement_target>
Monocotyledonous and dicotyledonous test plants

>  <value>
8

$$$$
>  <molecule>
Cn1nc(C(F)(F)F)c(CSC2=NOC(C)(C)C2F)c1F (stereo not drawn)

>  <measurement_target>
Monocotyledonous and dicotyledonous test plants

>  <value>
10

$$$$
>  <molecule>
Cn1nnc(Br)c1C[S+]([O-])C1=NOC(C)(C)C1F (mixture of isomers)

>  <measurement_target>
Monocotyledonous and dicotyledonous test plants

>  <value>
10

$$$$
>  <molecule>
Cn1nc(C(F)(F)F)cc1C[S+]([O-])C1=NOC(C)(C)C1F (mixture of isomers) [6.03]

>  <measurement_target>
Monocotyledonous and dicotyledonous test plants

>  <value>
10

$$$$
>  <molecule>
CC1(C)ON=C([S+]([O-])Cc2c(F)cccc2F)C1F (single isomer, unassigned) [1.16]

>  <measurement_target>
Monocotyledonous and dicotyledonous test plants

>  <value>
10

$$$$
>  <molecule>
Cn1nc(C(F)(F)F)c(CSC2=NOC(C)(C)C2F)c1OC(F)F (stereo not drawn)

>  <measurement_target>
Monocotyledonous and dicotyledonous test plants

>  <value>
10

$$$$
